B1: MYBL2 (parent)
chain: IAKHLKGRLGKQCRERWHNHLNPE

variants of: B1; test: protein stability index of a GFP-peptide fusion (GPS, HEK-293T) (PSI 1-6); higher = more stable; details: c terminus: a fixed tail appended;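 further: lentivirally expressed fusions sorted by FACS into six bins by GFP to DsRed ratio, PSI derived from sequencing read proportions per bin multiplied by bin number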
Quick rule: protein stability index of at least 2 means met, below that means not met.

Record excerpt, results attached:
query.sequence	class.name
IAKHLYGRLGKQCRERWHNHLNPE [K6Y]	not met
IAKHLKGRLGKQCRERGHNHLNPE [W17G]	met
IAKHLKGRLCKQCRERWHNHLNPE [G10C]	not met
IAKHLKGRLGKQCRERWHNHLNYE [P23Y]	not met
IAKHLKGRLAKQCRERWHNHLNPE [G10A]	not met
IAKHLKGRLGKQCRERMHNHLNPE [W17M]	met

**Q:** Test whether the variant EAKHLKGRLGKQCRERWHNHLNPE [I1E] records protein stability index of 2 or higher.
**A:** met

**Q:** Test whether the variant IAKHLCGRLGKQCRERWHNHLNPE [K6C] records protein stability index of 2 or higher.
**A:** met

**Q:** Test whether the variant IAKHLVGRLGKQCRERWHNHLNPE [K6V] records protein stability index of 2 or higher.
**A:** met

**Q:** Test whether the variant IAKHLKGRLYKQCRERWHNHLNPE [G10Y] records protein stability index of 2 or higher.
**A:** met

**Q:** Test whether the variant IAKHLKGRLGKQCRERWHNHHNPE [L21H] records protein stability index of 2 or higher.
**A:** not met

**Q:** Test whether the variant IAKHLKGRLGKQCRERWHNHENPE [L21E] records protein stability index of 2 or higher.
**A:** met
